tested on: Zymoseptoria tritici (SEPTTR-184); assay: Efficacy of target gene fragments (MgCytB dsRNA tiles) on wheat plants, SEPTTR-184; format: in vivo; design: scale not given here; conditions: 50 ppm; 1DP (preventative)
VALUE TYPE: Average of 2 trials SEPTTR-184 1DP

>>> data_value("MgCytB-T4: 219 bp dsRNA of Zymoseptoria CytB region T4, location 1-219 (SEQ ID NO:7) (nucleic acid, listed as Zymoseptoria tritici, complementary strand of dsRNA) ATGAGGATTTGGAAGAGTCACCCTTTATTTAGTCTGGTTAATGGTTATCTTATCGATTCACCACAACCAAGTAATCTAAGCTATCTATGAAATTTCGGTTCATTACTGGGATTTTGTCTTGTAATACAAATCGTTACTGGTGTTACACTTGCTATGCATTATAACCCTAGCGTATCTGAAGCATTTAACTCAGTTGAACACATAATGAGAGATGTAAAC")
73
>>> data_value("MgCytB-T7: 221 bp dsRNA of Zymoseptoria CytB region T7, location 947-1167 (SEQ ID NO:10) (nucleic acid, listed as Zymoseptoria tritici, complementary strand of dsRNA) GATTACAGTTTAGACCTTTAAGCAAGATCACATTTTACATATTTGTTGCTAACTTCTTAGTATTAATGCAATTAGGTGCTAATCACGTTGAGTCACCATTTATAGAATTTGGGCAAATTAGTACAGTACTGTACTTTTCACATTTCTTAATCATAGTGCCTCTAGTAAGCTTAATCGAGAATACTTTAGTGGATATGCACTTAAACAACACAATAACGTAA")
71
>>> data_value("MgCytB-T1: 267 bp dsRNA of Zymoseptoria CytB region 1, location 364-630 (SEQ ID NO:4) (nucleic acid, listed as Zymoseptoria tritici, complementary strand of dsRNA) GTTCTGATGATGGCAACCGCATTCTTAGGGTATGTATTACCTTATGGTCAAATGTCTTTATGAGGAGCAACAGTTATAACTAACTTATTGAGTGCAATACCTTGAGTTGGACAAGACATAGTTGAATTCGTATGAGGTGGATTTTCTGTTAACAATGCAACATTGAACAGATTCTTTGCTCTACATTTCGTTTTACCGTTTGTGTTAGCTGCATTAGTTTTAATGCATCTAATAGCTTTACACGATACAGCGGGTTCAGGAAATCCT")
71
>>> data_value("MgCytB-T2: 203 bp dsRNA of Zymoseptoria CytB region 2, location 603-805 (SEQ ID NO:5) (nucleic acid, listed as Zymoseptoria tritici, complementary strand of dsRNA) ACACGATACAGCGGGTTCAGGAAATCCTTTAGGTGTATCAGGTAACTACGATAGATTACCATTCGCCCCTTACTTTATATTCAAAGATTTAATAACAATATTTTTATTCATTATAGTGTTATCAATATTTATTTTCTTTATGCCTAACGTTTTAGGTGACAGCGAGAATTATGTTATGGCTAACCCTATGCAAACTCCACCTG")
71
